Test system: human umbilical vein endothelial cells (HUVEC)
Test: HUVEC + VEGF proliferation assay
Format: cell-based
Conditions: VEGF-stimulated proliferation, final VEGF 6 ng/mL, 72 hours, MTT
pIC50: −log10 of the molar value.
outcome-measure: pIC50

Here's what some known entries look like.
>  <compound>
CNC(=O)C(O)c1ccc(Oc2ccnc3cc(C(=O)N4CCC4)sc23)cc1 (centres unmarked) [Example 74]

>  <pIC50>
< 8.00

$$$$
>  <compound>
CNC(=O)Cc1ccc(Oc2ccnc3cc(C(=O)N4CC[C@@H](O)C4)sc23)cc1 [Example 69]

>  <pIC50>
< 8.00

$$$$
>  <compound>
O=C(Cc1ccc(Oc2ccnc3cc(C(=O)N4CCC4)sc23)cc1)Nc1ccc(N2CCOCC2)nc1 [Example 38]

>  <pIC50>
< 8.00

$$$$
>  <compound>
Cc1cc(NC(=O)Cc2ccc(Oc3ccnc4cc(C(=O)N5CCC5)sc34)cc2Cl)nn1C [Example 56]

>  <pIC50>
< 8.00

$$$$
>  <compound>
CNC(=O)C(O)c1ccc(Oc2ccnc3cc(C(=O)N4CC[C@@H](O)C4)sc23)cc1 (some centres unmarked) [Example 76]

>  <pIC50>
< 8.00

$$$$
>  <compound>
Cc1ccnc(NC(=O)Cc2ccc(Oc3ccnc4cc(C(=O)N5CCC5)sc34)cc2)c1 [Example 23]

>  <pIC50>
> 9.00

$$$$

*Q* Report pIC50 for O=C(Cc1ccc(Oc2ccnc3cc(C(=O)N4CCC4)sc23)cc1)Nc1ccc2ccccc2n1 [Example 33]
*A* < 8.00

*Q* Report pIC50 for Cn1ccnc1-c1cc2nccc(Oc3ccc(CC(=O)Nc4ccc(Cl)cn4)cc3)c2s1 [Example 10]
*A* > 9.00

====

Tested on: human umbilical vein endothelial cells (HUVEC)
Experiment: HUVEC + VEGF proliferation assay
Type: cell-based
Settings: VEGF-stimulated proliferation, final VEGF 6 ng/mL, 72 hours, MTT
pIC50: −log10 of the molar value.
The entries below come with measured pIC50 values attached.

Here's what some known entries look like.
>  <smiles-repr>
Cc1cccc(NC(=O)Cc2ccc(Oc3ccnc4cc(C(=O)N5CCC5)sc34)cc2)n1

>  <tested-on>
human umbilical vein endothelial cells (HUVEC)

>  <pIC50>
8.00 to 9.00

$$$$
>  <smiles-repr>
O=C(Cc1ccc(Oc2ccnc3cc(C(=O)N4CCC4)sc23)cc1)Nc1ccc(Br)cn1

>  <tested-on>
human umbilical vein endothelial cells (HUVEC)

>  <pIC50>
8.00 to 9.00

$$$$
>  <smiles-repr>
CN(C)C(=O)c1cc2nccc(Oc3ccc(CC(=O)Nc4ccc(Cl)cn4)cc3)c2s1

>  <tested-on>
human umbilical vein endothelial cells (HUVEC)

>  <pIC50>
< 8.00

$$$$

*Q* Give human umbilical vein endothelial cells (HUVEC) pIC50 for the following molecule: `Cc1cc(C)nc(NC(=O)Cc2ccc(Oc3ccnc4cc(C(=O)N5CC[C@@H](N(C)C)C5)sc34)cc2)c1`
*A* 8.00 to 9.00

*Q* Give human umbilical vein endothelial cells (HUVEC) pIC50 for the following molecule: `O=C(Cc1ccc(Oc2ccnc3cc(C(=O)N4CC[C@@H](O)C4)sc23)cc1)Nc1ccc(Cl)cn1`
*A* < 8.00

*Q* Give human umbilical vein endothelial cells (HUVEC) pIC50 for the following molecule: `Cn1ccnc1-c1cc2nccc(Oc3ccc(CC(=O)Nc4ccc(C(F)(F)F)cn4)cc3)c2s1`
*A* < 8.00

*Q* Give human umbilical vein endothelial cells (HUVEC) pIC50 for the following molecule: `Cc1cc(C)nc(NC(=O)Cc2ccc(Oc3ccnc4cc(-c5nccn5C)sc34)cc2)c1`
*A* > 9.00

*Q* Give human umbilical vein endothelial cells (HUVEC) pIC50 for the following molecule: `Cc1ccnc(NC(=O)Cc2ccc(Oc3ccnc4cc(-c5nccn5C)sc34)cc2)c1`
*A* < 8.00

*Q* Give human umbilical vein endothelial cells (HUVEC) pIC50 for the following molecule: `O=C(Cc1ccc(Oc2ccnc3cc(C(=O)N4CC[C@@H](O)C4)sc23)cc1)Nc1ccccc1`
*A* 8.00 to 9.00

*Q* Give human umbilical vein endothelial cells (HUVEC) pIC50 for the following molecule: `COc1ccc2c(Oc3ccc(CC(=O)Nc4ccc(Cl)cn4)cc3)ccnc2c1`
*A* < 8.00

*Q* Give human umbilical vein endothelial cells (HUVEC) pIC50 for the following molecule: `Cc1cc(NC(=O)Cc2ccc(Oc3ccnc4cc(C(=O)N5CCC5)sc34)cc2Cl)no1`
*A* < 8.00

*Q* Give human umbilical vein endothelial cells (HUVEC) pIC50 for the following molecule: `O=C(Cc1ccc(Oc2ccnc3cc(C(=O)N4CC[C@@H](O)C4)sc23)cc1)Nc1cc2ccccc2cn1`
*A* < 8.00

*Q* Give human umbilical vein endothelial cells (HUVEC) pIC50 for the following molecule: `Cc1cc(NC(=O)Cc2ccc(Oc3ccnc4cc(C(=O)N5CCC5)sc34)cc2)no1`
*A* 8.00 to 9.00

*Q* Give human umbilical vein endothelial cells (HUVEC) pIC50 for the following molecule: `Cn1ccnc1-c1cc2nccc(Oc3ccc(CC(=O)Nc4ccccn4)c(Cl)c3)c2s1`
*A* < 8.00

*Q* Give human umbilical vein endothelial cells (HUVEC) pIC50 for the following molecule: `Cn1ccnc1-c1cc2nccc(Oc3ccc(CC(=O)Nc4cc5ccccc5cn4)cc3)c2s1`
*A* < 8.00

*Q* Give human umbilical vein endothelial cells (HUVEC) pIC50 for the following molecule: `CO[C@@H]1CCN(C(=O)c2cc3nccc(Oc4ccc(CC(=O)Nc5ccccn5)c(Cl)c4)c3s2)C1`
*A* < 8.00

From: patent US7208500B2
